Tested on: Danio rerio Tg(wt1b:EGFP) embryo, pronephros
Assay: glomerular width (mean of left and right), fold change vs DMSO control; higher = wider glomerulus
Settings: 25 µM; exposure: 24-48 hpf
Where a name gives a salt, the structure may show the parent alone.
Label scheme for glomerular width: lower than 1 is no (0), 1 and above is yes (1).

# COMPOUND, STUDY_SYSTEM, CATEGORY
measured = [
    ("O=C(CCCN1CC=C(n2c(=O)[nH]c3ccccc32)CC1)c1ccc(F)cc1", "Danio rerio Tg(wt1b:EGFP) embryo, pronephros", "no (0)"),
    ("Clc1ccc(C(Cn2ccnc2)OCc2c(Cl)cccc2Cl)c(Cl)c1 (stereo not drawn)", "Danio rerio Tg(wt1b:EGFP) embryo, pronephros", "no (0)"),
    ("Cc1ccc(O)c([C@H](CCN(C(C)C)C(C)C)c2ccccc2)c1 [Tolterodine tartrate]", "Danio rerio Tg(wt1b:EGFP) embryo, pronephros", "yes (1)"),
    ("Cc1c(F)c(N2CCNC(C)C2)cc2c1c(=O)c(C(=O)O)cn2C1CC1 (stereo not drawn)", "Danio rerio Tg(wt1b:EGFP) embryo, pronephros", "yes (1)"),
    ("CCCCC(C)(O)C/C=C/[C@H]1[C@H](O)CC(=O)[C@@H]1CCCCCCC(=O)OC (mixture of isomers)", "Danio rerio Tg(wt1b:EGFP) embryo, pronephros", "no (0)"),
    ("CN(C)CCOC(c1ccccc1)c1ccccc1 [Diphenhydramine hydrochloride]", "Danio rerio Tg(wt1b:EGFP) embryo, pronephros", "yes (1)"),
    ("CCC(C)(CN(C)C)OC(=O)c1ccccc1 (stereo not drawn) [Amyleine hydrochloride]", "Danio rerio Tg(wt1b:EGFP) embryo, pronephros", "yes (1)"),
    ("NCCC[C@H](N)CC(=O)N[C@H]1CNC(=O)[C@H]([C@H]2C[C@H](O)NC(N)=N2)NC(=O)/C(=C/NC(N)=O)NC(=O)[C@H](CO)NC(=O)[C@H](CO)NC1=O [Viomycin sulfate]", "Danio rerio Tg(wt1b:EGFP) embryo, pronephros", "no (0)"),
    ("Cc1cc(C(C)(C)C)c(O)c(C)c1CC1=NCCN1 [Oxymetazoline hydrochloride]", "Danio rerio Tg(wt1b:EGFP) embryo, pronephros", "yes (1)"),
    ("Nc1ccc(O)c(C(=O)O)c1", "Danio rerio Tg(wt1b:EGFP) embryo, pronephros", "no (0)"),
    ("c1ccc(-c2ccc(C(c3ccccc3)n3ccnc3)cc2)cc1 (stereo not drawn)", "Danio rerio Tg(wt1b:EGFP) embryo, pronephros", "no (0)"),
    ("Cc1onc(-c2ccccc2Cl)c1C(=O)N[C@@H]1C(=O)N2[C@@H]1SC(C)(C)[C@@H]2C(=O)O [Cloxacillin sodium salt]", "Danio rerio Tg(wt1b:EGFP) embryo, pronephros", "yes (1)"),
    ("Clc1ccc(CCC(Cn2ccnc2)Sc2c(Cl)cccc2Cl)cc1 (stereo not drawn) [Butoconazole nitrate]", "Danio rerio Tg(wt1b:EGFP) embryo, pronephros", "no (0)"),
    ("CN(C)[C@@H]1C(O)=C(C(N)=O)C(=O)[C@@]2(O)C(O)=C3C(=O)c4c(O)cccc4[C@@](C)(O)[C@H]3[C@H](O)[C@@H]12 [Oxytetracycline dihydrate]", "Danio rerio Tg(wt1b:EGFP) embryo, pronephros", "no (0)"),
    ("C[n+]1ccccc1/C=N/O [Pralidoxime chloride]", "Danio rerio Tg(wt1b:EGFP) embryo, pronephros", "no (0)"),
    ("COc1ccc(C(=O)CC(=O)c2ccc(C(C)(C)C)cc2)cc1", "Danio rerio Tg(wt1b:EGFP) embryo, pronephros", "yes (1)"),
    ("Cc1cccn2c(=O)c(-c3nnn[nH]3)cnc12", "Danio rerio Tg(wt1b:EGFP) embryo, pronephros", "no (0)"),
    ("C=C1/C(=C\\C=C2/CCC[C@]3(C)[C@@H]([C@H](C)/C=C/[C@@H](O)C4CC4)CC[C@@H]23)C[C@@H](O)C[C@@H]1O", "Danio rerio Tg(wt1b:EGFP) embryo, pronephros", "yes (1)"),
    ("CC1(C)NC(=O)N(c2ccc([N+](=O)[O-])c(C(F)(F)F)c2)C1=O [Nilutamide]", "Danio rerio Tg(wt1b:EGFP) embryo, pronephros", "yes (1)"),
    ("C[C@]12CC[C@@H]3c4ccc(O)cc4CC[C@H]3[C@@H]1CC[C@@H]2O", "Danio rerio Tg(wt1b:EGFP) embryo, pronephros", "no (0)"),
    ("CCN[C@H]1C[C@H](C)S(=O)(=O)c2sc(S(N)(=O)=O)cc21 [Dorzolamide hydrochloride]", "Danio rerio Tg(wt1b:EGFP) embryo, pronephros", "no (0)"),
    ("Cc1cc(NS(=O)(=O)c2ccc(N)cc2)no1", "Danio rerio Tg(wt1b:EGFP) embryo, pronephros", "yes (1)"),
    ("C=CC(N)CCC(=O)O (stereo not drawn) [Vigabatrin hydrochloride]", "Danio rerio Tg(wt1b:EGFP) embryo, pronephros", "yes (1)"),
    ("NCCc1cc[nH]n1 [Betazole hydrochloride]", "Danio rerio Tg(wt1b:EGFP) embryo, pronephros", "no (0)"),
    ("NS(=O)(=O)c1cc2c(cc1C(F)(F)F)NCNS2(=O)=O [Hydroflumethiazide]", "Danio rerio Tg(wt1b:EGFP) embryo, pronephros", "yes (1)"),
    ("CCN(CC)CCOC(=O)C1(C2CCCCC2)CCCCC1 [Dicyclomine hydrochloride]", "Danio rerio Tg(wt1b:EGFP) embryo, pronephros", "yes (1)"),
]
